Origin of the recorded values: PubChem BioAssay (NCATS)

# Tested on: HaCat
# assay.notes: Cytotoxic Profiling of Annotated Libraries Using Quantitative High-Throughput Screening (AID 1296008); also: nearly all actives have a fitted effect of over 60% in size
# settings: Five cell lines viability, CellTiter-Glo ATP luminescence, 48-72 h
# Procedure: Cell-based phenotypic screening is a commonly used approach to discover biological pathways, novel drug targets, chemical probes and high-quality hit-to-lead molecules. […] A pintool (Kalypsys) was used to transfer 23 nL of compound solution to the 1536-well assay plates. […] Plates were left at room temperature for 10 min before imaging the ATP-coupled luminescence using a ViewLux microplate imager (PerkinElmer, Waltham, MA).
Records with an inconclusive call do not appear. The source made the active and inactive calls. Calls follow the shape of the dose curve; as a rule, active = well fitted inhibition curve with a large enough effect; inconclusive = small, poorly fitted or top-dose-only effect; inactive = flat fitted curve, though single readings scatter.
The reply should be one of these categories: Yes for active, No for inactive

Solved cases (3 shown):
>>> label_value("CCC(=O)C(CC(C)N(C)C)(c1ccccc1)c1ccccc1 (configuration not stated)")
"No"
>>> label_value("N[C@@H](Cc1ccc(Oc2cc(I)c(O)c(I)c2)c(I)c1)C(=O)O")
"No"
>>> label_value("CC(=O)[C@H]1CC[C@H]2[C@@H]3CC[C@H]4C[C@](C)(O)CC[C@]4(C)[C@H]3CC[C@]12C")
"No"

// query So what was the verdict on `Cc1ccc(S(=O)(=O)N[C@@H](CCCCN)C(=O)CCl)cc1` in this test?
// result No

// query Given O=P1(NCCCl)OCCCN1CCCl (configuration not stated) , state the outcome it received in this test.
// result No

// query // param item: `C[C@@H]1[C@@H](C(=O)C[C@H]2O[C@@H]3O[C@]4(C)CC[C@@H]5[C@H](C)CC[C@@H]([C@H]2C)[C@@]35OO4)O[C@@H]2O[C@]3(C)CC[C@H]4[C@H](C)CC[C@@H]1[C@@]24OO3` ; yields the recorded call
// result Yes

====

# assay.notes: Primary qHTS for inhibitors of nuclear receptor binding SET domain protein 2 (NSD2) in an RCH-ACV wild type WT cells (2C) (AID 1645877); also: nearly all actives have a fitted effect of over 70% in size
# settings: RCH-ACV (leukaemia line) NSD2 WT (2C) viability, CellTiter-Glo, 72 h; series mostly up to 44.9 µM
Records with an inconclusive call do not appear. Active and inactive are the calls of the source. Calls follow the shape of the dose curve; as a rule, active = well fitted inhibition curve with a large enough effect; inconclusive = small, poorly fitted or top-dose-only effect; inactive = no such curve, though single readings can be large or run the other way.
Pick one and only one: Y for active, N for inactive

>>> label_value("Cc1ccc2c(c1)C1CN(C)CCC1N2 (configuration not stated)")
"N"
>>> label_value("Cc1ncc(CNC(=O)N(CCCl)N=O)c(N)n1")
"N"
>>> label_value("CC[N+]1(C)CCCC(OC(=O)C(O)(c2ccccc2)c2ccccc2)C1 (configuration not stated)")
"N"

// query Outcome logged for `O=c1[nH]c2ccccc2n1CCCN1CCC(n2c(=O)[nH]c3cc(Cl)ccc32)CC1` in this assay:
// result Y

// query Recorded test outcome, item `C[C@]12C/C(=C/O)C(=O)C[C@@H]1CC[C@@H]1[C@@H]2CC[C@@]2(C)[C@H]1CC[C@]2(C)O`
// result Y

// query Hey, what did the test say about `FC(F)(F)c1cccc(C2=CCN(CCc3ccc4ccccc4c3)CC2)c1` ?
// result N

// query Please let me know the test result on file for CNC(=O)N1N=C(c2ccc(N)cc2)c2cc3c(cc2CC1C)OCO3 (configuration not stated) .
// result Y

// query # lookup: test call for `c1ccc2c(c1)Nc1ccccc1S2`
// result N

// query Please state the recorded outcome for this molecule: `CCOC(=O)C1(c2ccccc2)CCN(CCC(C#N)(c2ccccc2)c2ccccc2)CC1`
// result Y

// query What was the test verdict on COc1ccc2c(c1OC)CN1CCc3cc4c(cc3C1C2)OCO4 (configuration not stated) ?
// result Y

// query Hello, I am checking results. What call was entered for `NCC1(CC(=O)O)CCCCC1` ?
// result N

// query What did this assay record as the result for `CC(C)(N)Cc1ccc(Cl)cc1` ?
// result N

====

// reported cell viability, % of control (lower = more cytotoxic) per item
# assay.notes: High-throughput drug toxicity screening in the BPDCN cell line Gen2.2 (AID 1224824);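 also: cells exposed to compounds for 48 h before reading; 100% = DMSO and 0% = bortezomib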
# settings: Gen2.2 BPDCN cells; at 45.8 µM (top of the series)
Respond numerically; units are % and should not be typed.

>>> result_value("COC[C@@H](NC(C)=O)C(=O)NCc1ccccc1")
142

// query Value lookup for cell viability, % of control (lower = more cytotoxic); key = `CN(C)CCN(C)CCc1ccc(Cl)c(Cl)c1`
// result 137

// query What value of measured cell viability, % of control (lower = more cytotoxic) is listed for `O=c1[nH]c2ccccc2n1CCCN1CCC(n2c(=O)[nH]c3cc(Cl)ccc32)CC1` ?
// result 278

// query Field request: cell viability, % of control (lower = more cytotoxic) | item: `Fc1ccc(C(OCCN2CCN(CCCc3ccccc3)CC2)c2ccc(F)cc2)cc1`
// result 57.3

// query What value of cell viability, % of control (lower = more cytotoxic) has been recorded for this entry: `O=C1CC[C@@]2(O)[C@H]3Cc4ccc(O)c5c4[C@@]2(CCN3CC2CC2)[C@H]1O5`
// result 200

====

Listing of recorded Potency by entry.
# assay.notes: Quantitative High-Throughput drug screen in 47 multiple myeloma cell lines against the NCATS MIPE library collection: MMM1_PLB cell viability assay (AID 1918976); also: potency is read from the fitted curve at half-maximal effect; nearly all actives have a fitted effect of over 35% in size
# settings: MMM1 myeloma cells viability, CellTiter-Glo, 48 h
Records with an inconclusive call do not appear. The source made the active and inactive calls. The call rests on the fitted dose curve; in most records, active means well fitted cell-killing curve with a large enough effect; inconclusive means small, poorly fitted or top-dose-only effect, or effect the other way; inactive means no such curve, though single readings can be large or run the other way.

>>> result_value("COc1ccc2c(c1OC)CN1CCc3cc4c(cc3C1C2)OCO4 (stereo not given)")
"26.4 µM (active)"
>>> result_value("C=C(C)[C@H]1Cc2c(ccc3c2O[C@@H]2COc4cc(OC)c(OC)cc4[C@@H]2C3=O)O1")
"0.166 µM (active)"
>>> result_value("C#CCN(C)[C@H](C)Cc1ccccc1")
"2.96 µM (active)"
>>> result_value("C[C@@H]1[C@@H](CC(C[C@H]2O[C@@H]3O[C@]4(C)CC[C@@H]5[C@H](C)CC[C@@H]([C@H]2C)[C@@]35OO4)C[S+](=O)([O-])c2ccc(COC(=O)N(C)C)cc2)O[C@@H]2O[C@]3(C)CC[C@H]4[C@H](C)CC[C@@H]1[C@@]24OO3 (stereo not given in full)")
"0.148 µM (active)"
>>> result_value("CC1=C2C[C@@H]3[C@@H](CC=C4C[C@@H](O)CC[C@@]43C)[C@@H]2CC[C@]12O[C@H]1C[C@H](C)CN[C@H]1[C@H]2C")
"9.35 µM (active)"
>>> result_value("N[C@@H](Cc1ccc(N(CCCl)CCCl)cc1)C(=O)O")
"4.69 µM (active)"
>>> result_value("COC1(CS(=O)c2ccccc2)CCN(CCc2c[nH]c3ccc(F)cc23)CC1 (stereo not given)")
"3.72 µM (active)"
>>> result_value("CNC(=O)N1N=C(c2ccc(N)cc2)c2cc3c(cc2CC1C)OCO3 (stereo not given)")
"14.8 µM (active)"
>>> result_value("CN(C)[C@@H]1C(=O)C(C(N)=O)=C(O)[C@@]2(O)C(=O)C3=C(O)c4c(O)cccc4[C@@](C)(O)[C@H]3C[C@@H]12")
"8.33 µM (active)"

// query Data request, read-out Potency, for `C[C@@H]1[C@@H](C(=O)C[C@H]2O[C@@H]3O[C@]4(C)CC[C@@H]5[C@H](C)CC[C@@H]([C@H]2C)[C@@]35OO4)O[C@@H]2O[C@]3(C)CC[C@H]4[C@H](C)CC[C@@H]1[C@@]24OO3`
// result 0.418 µM (active)

====

# settings: Ebola virus entry assay, blue channel (ratio component)
Results with a measured potency or affinity are listed apart. The source made the active and inactive calls.
measurement.label: outcome

>>> result_value("C[C@]12CC[C@H]3[C@@H](CCC4=CC(=O)CC[C@@H]43)[C@@H]1CC[C@@H]2OC(=O)CCc1ccccc1")
"inactive"
>>> result_value("CC[N+](C)(C)c1cccc(O)c1")
"inactive"
>>> result_value("CN1CC(=O)N/C1=N/C(=O)Nc1cccc(Cl)c1")
"inactive"
>>> result_value("NCC1(CC(=O)O)CCCCC1")
"inactive"
>>> result_value("COc1cc2c(cc1OC)[C@@H]1CC(=O)[C@@H](CC(C)C)CN1CC2")
"inactive"

// query Would you kindly share the measured outcome for Cc1cccc(C)c1OCC(C)N (configuration not stated) ?
// result inactive

// query # query: outcome of entry `CCCN(CCC)S(=O)(=O)c1ccc(C(=O)O)cc1`
// result inactive

// query Which outcome reading was recorded for the compound `CC[C@H](C)C(=O)O[C@H]1C[C@@H](C)C=C2C=C[C@H](C)[C@H](CC[C@@H]3C[C@@H](O)CC(=O)O3)[C@H]21` ?
// result inactive

// query Look at this compound and give its reported outcome. `CNCCc1ccccn1`
// result inactive

// query Given Nc1cccc2c1CN(C1CCC(=O)NC1=O)C2=O (configuration not stated) , state its recorded outcome.
// result inactive
